Quick reference for ALOMY damage score, application pre-emergence among some compounds
System: Alopecurus myosuroides
assay-protocol: Pre-emergence herbicidal activity, glasshouse pot test
Assay type: in vivo
assay-setup: pre-emergence spray, rate 1000 g/ha, evaluated after 13 days, scale 0-5
I only need the number, thanks.

Please review the entries below; each comes with its answer.
compound: CC#Cc1nnc(N2C(=O)C(OC)=C(C)C2O)cc1C(C)(C)F (stereo not drawn)
numeric-value: 2

compound: COc1ccnc(N2C(=O)C(Cl)=C(C)C2O)c1 (stereo not drawn)
numeric-value: 0

compound: CC1=C(Cl)C(=O)N(c2cc(C)c(-c3ccsc3)cn2)C1O (stereo not drawn)
numeric-value: 0

compound: COC1=C(C)C(O)N(c2cc(C(F)(F)Cl)ccn2)C1=O (stereo not drawn)
numeric-value: 3

compound: COC1=C(C)C(O)N(c2cc(C(F)(F)F)c(C(=O)N(C)C)cn2)C1=O (stereo not drawn)
numeric-value: 4

compound: CC1=C(Cl)C(=O)N(c2cc(C(C)C)c(C(=O)OC(C)C)cn2)C1O (stereo not drawn)
numeric-value: 4

# next compound below
Prompt: I'm curious: which ALOMY damage score, application pre-emergence was measured for COC(=O)c1cnc(N2C(=O)C(OC)=C(C)C2O)cc1Cl (stereo not drawn) tested on Alopecurus myosuroides?
Completion: 0

====

Quick reference for ALOMY damage score, application pre-emergence among some compounds
Test system: Alopecurus myosuroides
assay-protocol: Pre-emergence herbicidal activity, glasshouse pot test
Format: in vivo
assay-setup: pre-emergence spray, rate 1000 g/ha, evaluated after 13 days, scale 0-5
Experimental: Seeds of a variety of test species were sown in standard soil in pots. […] After 13 days, the test was evaluated (5=total damage to plant; 0=no damage to plant). […]
I only need the number, thanks.

Please review the entries below; each comes with its answer.
compound: COC1=C(C)C(O)N(c2cc(C)c(-c3cnn(C)c3)nn2)C1=O (stereo not drawn) [BI33]
numeric-value: 0
//
compound: CC1=C(Cl)C(=O)N(c2cc(C(F)(F)F)c(-c3ccc(C#N)cc3)cn2)C1O (stereo not drawn) [AF93]
numeric-value: 0

Prompt: I'm curious: which ALOMY damage score, application pre-emergence was measured for CC1=C(Cl)C(=O)N(c2cc(C3CC3)ncn2)C1O (stereo not drawn) [CF4] tested on Alopecurus myosuroides?
Completion: 3

Prompt: I'm curious: which ALOMY damage score, application pre-emergence was measured for CCOC1=C(C)C(O)N(c2cc(C(F)(F)F)ccn2)C1=O (stereo not drawn) [AI5] tested on Alopecurus myosuroides?
Completion: 4

====

Tested on: Setaria faberi
assay-protocol: Post-emergence herbicidal activity, glasshouse pot test
Format: in vivo
Parameters: key: 0 = no damage to plant, 5 = total damage to plant
assay-setup: Application post-emergence, rate 1000 g/ha, evaluated after 13 days
Description: Seeds of a variety of test species were sown in standard soil in pots. […] After 13 days, the test was evaluated (5=total damage to plant; 0=no damage to plant). […]
measurement-type: SETFA herbicidal damage score
I only need the number, thanks.

Please review the entries below; each comes with its answer.
molecule: CC1=C(Cl)C(=O)N(c2cc(C(C)C)c(C(=O)NC(C)(C)C)cn2)C1O (stereo not drawn)
numeric-value: 5
--
molecule: CC1=C(Br)C(=O)N(c2cc(C(F)(F)F)ccn2)C1O (stereo not drawn)
numeric-value: 5
--
molecule: COC1=C(OC)C(O)N(c2cc(F)ccn2)C1=O (stereo not drawn)
numeric-value: 5
--
molecule: CC1=C(Cl)C(=O)N(c2cc(C(F)(F)F)c(-c3ccc(Cl)cc3)cn2)C1O (stereo not drawn) [AF87]
numeric-value: 5
--
molecule: CC1=C(Cl)C(=O)N(c2nccc(C(C)(C)C)n2)C1O (stereo not drawn)
numeric-value: 5

Prompt: For CC1=C(Cl)C(=O)N(c2nccc(C(C)(C)C#N)n2)C1O (stereo not drawn) , what is its reported SETFA herbicidal damage score?
Completion: 4
